All values here come from paper PMC11501026.

Experiment: in situ brain/choroid plexus perfusion: CNS uptake of [^3H]-arginine, [^3H]-ADMA and [^14C]-sucrose (multiple-time and single-time uptake analysis)
Details: male, BALB/c, mouse, cerebellum, Difference (ADMA minus Sucrose), 20 mins, 5ml/min; mean
Counter-ions that a name gives are not always drawn.
readout.type: Kp at 20 min, 62.5 nM
The reply should be a number, written without any unit.

Which value of Kp at 20 min, 62.5 nM has been reported for CN(C)C(N)=NCCC[C@H](N)C(=O)O [ADMA, N^G,N^G-dimethylarginine dihydrochloride] in the records? 0.273

###

System: [3H]-ADMA transport across the blood-brain and blood-CSF barriers
Assay: cross-inhibition, in situ perfusion: [^3H]-ADMA with 100 μM unlabelled L-arginine
Type: in vivo, mouse
Conditions: male, Balb/c, mouse, pituitary gland, other: in situ brain perfusion, with 100 µM unlabelled L-arginine, [3H] ADMA + [14C] Sucrose + 100uM Arg, 10 mins, Balb/c ♂, 5ml/min; mean; read-out: uptake into pituitary gland
Where a name gives a salt, the structure may show the parent alone.
readout.type: Kp at 10 min, 62.5 nM
The reply should be a number, written without any unit.

compound: CN(C)C(N)=NCCC[C@H](N)C(=O)O [ADMA, N^G,N^G-dimethylarginine dihydrochloride]
readout.type: Kp at 10 min, 62.5 nM
observed.result: 0.6

Let's switch to this compound now.
Form field - read-out: Kp at 10 min, 62.5 nM; system: [3H]-ADMA transport across the blood-brain and blood-CSF barriers; submitted item: OC[C@H]1O[C@@](CO)(O[C@H]2O[C@H](CO)[C@@H](O)[C@H](O)[C@H]2O)[C@@H](O)[C@@H]1O [[^14C]-sucrose, reference compound] 0.113

###

Assay: in situ brain/choroid plexus perfusion: CNS uptake of [^3H]-arginine, [^3H]-ADMA and [^14C]-sucrose (multiple-time and single-time uptake analysis)
Conditions: male, BALB/c, mouse, CSF, Difference (ADMA minus Sucrose), 2.5 mins, 5ml/min; mean
Where a name gives a salt, the structure may show the parent alone.
readout.type: Kp at […]
The reply should be a number, written without any unit.

Which value of Kp at […] has been reported for CN(C)C(N)=NCCC[C@H](N)C(=O)O [ADMA, N^G,N^G-dimethylarginine dihydrochloride] in the records? 0.034

###

Assay: in situ brain/choroid plexus perfusion: CNS uptake of [^3H]-arginine, [^3H]-ADMA and [^14C]-sucrose (multiple-time and single-time uptake analysis)
Conditions: male, BALB/c, mouse, choroid plexus, [3H] ADMA and [14C] Sucrose uptake, 2.5 mins, 5ml/min; individual mouse
Counter-ions that a name gives are not always drawn.
readout.type: Kp at […], 62.5 nM
The reply should be a number, written without any unit.

Which value of Kp at […], 62.5 nM has been reported for CN(C)C(N)=NCCC[C@H](N)C(=O)O [ADMA, N^G,N^G-dimethylarginine dihydrochloride] in the records? 0.645

###

Experiment: in situ brain/choroid plexus perfusion: CNS uptake of [^3H]-arginine, [^3H]-ADMA and [^14C]-sucrose (multiple-time and single-time uptake analysis)
Conditions: male, BALB/c, mouse, occipital cortex, [3H] ADMA and [14C] Sucrose uptake, 2.5 mins, 5ml/min; mean
Structures can show the parent of a compound that is named as a salt.
readout.type: Kp at […], 62.5 nM
The reply should be a number, written without any unit.

Which value of Kp at […], 62.5 nM has been reported for CN(C)C(N)=NCCC[C@H](N)C(=O)O [ADMA, N^G,N^G-dimethylarginine dihydrochloride] in the records? 0.0969

###

Test system: [3H]-ADMA transport across the blood-brain and blood-CSF barriers
Test: self-inhibition, in situ perfusion: [^3H]-ADMA with 100 μM unlabelled ADMA
Type: in vivo, mouse
Settings: male, Balb/c, mouse, CSF, other: in situ brain perfusion, with unlabelled ADMA 100 µM, [3H] ADMA + [14C] Sucrose + 100uM un-labelled ADMA, 10 mins, Balb/c ♂, 5ml/min; mean; read-out: uptake into CSF
Where a name gives a salt, the structure may show the parent alone.
Recorded Kp at 10 min, 62.5 nM, one value per entry.
The reply should be a number, written without any unit.

compound: OC[C@H]1O[C@@](CO)(O[C@H]2O[C@H](CO)[C@@H](O)[C@H](O)[C@H]2O)[C@@H](O)[C@@H]1O [[^14C]-sucrose, reference compound]
Kp at 10 min, 62.5 nM: 0.138

Let's switch to this compound now.
Which value of Kp at 10 min, 62.5 nM has been reported for CN(C)C(N)=NCCC[C@H](N)C(=O)O [ADMA, N^G,N^G-dimethylarginine dihydrochloride] in the records? 2.15

###

Test: capillary depletion analysis after in situ brain perfusion
Format: in vivo, mouse
Details: male, BALB/c, mouse, endothelial cell-enriched pellet (capillary depletion), other: in situ brain perfusion, Difference (ADMA minus Sucrose), pellet, 30 mins, Balb/c ♂, 5ml/min; mean
Where a name gives a salt, the structure may show the parent alone.
readout.type: Kp at 30 min, 62.5 nM
The reply should be a number, written without any unit.

Which value of Kp at 30 min, 62.5 nM has been reported for CN(C)C(N)=NCCC[C@H](N)C(=O)O [ADMA, N^G,N^G-dimethylarginine dihydrochloride] in the records? 0.012

###

Test: capillary depletion analysis after in situ brain perfusion
Format: in vivo, mouse
Details: male, Balb/c, mouse, supernatant (brain parenchyma) after capillary depletion, other: in situ brain perfusion, with unlabelled ADMA 3 µM, Arginine / Sucrose uptake, supernatant, mean, [3H] Arginine + [14C] Sucrose + 3 uM ADMA, 10 mins, Balb/c ♂, 5ml/min; mean
readout.type: Kp at 10 min
The reply should be a number, written without any unit.

Which value of Kp at 10 min has been reported for OC[C@H]1O[C@@](CO)(O[C@H]2O[C@H](CO)[C@@H](O)[C@H](O)[C@H]2O)[C@@H](O)[C@@H]1O [[^14C]-sucrose, reference compound] in the records? 0.0159

###

Experiment: capillary depletion analysis after in situ brain perfusion
Format: in vivo, mouse
Conditions: male, Balb/c, mouse, endothelial cell-enriched pellet, other: in situ brain perfusion, with unlabelled ADMA 100 µM, Arginine / Sucrose uptake, pellet, mean, [3H] Arginine + [14C] Sucrose + 100µM un-labelled ADMA, 10 mins, Balb/c ♂, 5ml/min; mean
readout.type: Kp at 10 min

Which value of Kp at 10 min has been reported for OC[C@H]1O[C@@](CO)(O[C@H]2O[C@H](CO)[C@@H](O)[C@H](O)[C@H]2O)[C@@H](O)[C@@H]1O [[^14C]-sucrose, reference compound] in the records? 0.00383

###

Experiment: in situ brain/choroid plexus perfusion: CNS uptake of [^3H]-arginine, [^3H]-ADMA and [^14C]-sucrose (multiple-time and single-time uptake analysis)
Details: male, BALB/c, mouse, frontal cortex, Difference (ADMA minus Sucrose), 2.5 mins, 5ml/min; individual mouse
Counter-ions that a name gives are not always drawn.
readout.type: Kp at […], 62.5 nM
The reply should be a number, written without any unit.

Which value of Kp at […], 62.5 nM has been reported for CN(C)C(N)=NCCC[C@H](N)C(=O)O [ADMA, N^G,N^G-dimethylarginine dihydrochloride] in the records? 0.0723

###

Assay: in situ brain/choroid plexus perfusion: CNS uptake of [^3H]-arginine, [^3H]-ADMA and [^14C]-sucrose (multiple-time and single-time uptake analysis)
Settings: male, BALB/c, mouse, CSF, [3H] ADMA and [14C] Sucrose uptake, 20 mins, 5ml/min; mean
Where a name gives a salt, the structure may show the parent alone.
readout.type: Kp at 20 min, 62.5 nM
The reply should be a number, written without any unit.

Which value of Kp at 20 min, 62.5 nM has been reported for CN(C)C(N)=NCCC[C@H](N)C(=O)O [ADMA, N^G,N^G-dimethylarginine dihydrochloride] in the records? 0.433

###

Assay: cross-inhibition, in situ perfusion: [^3H]-arginine with 0.5–500 μM unlabelled ADMA
Assay type: in vivo, mouse
Settings: male, Balb/c, mouse, pituitary gland, other: in situ brain perfusion, with 0.5 µM unlabelled ADMA, pituitary gland: [14C] Sucrose, + 0.5 uM ADMA, 10 mins, Balb/c ♂, 5ml/min; mean
readout.type: Kp at 10 min
The reply should be a number, written without any unit.

Which value of Kp at 10 min has been reported for OC[C@H]1O[C@@](CO)(O[C@H]2O[C@H](CO)[C@@H](O)[C@H](O)[C@H]2O)[C@@H](O)[C@@H]1O [[^14C]-sucrose, reference compound] in the records? 0.13

###

Assay: in situ brain/choroid plexus perfusion: CNS uptake of [^3H]-arginine, [^3H]-ADMA and [^14C]-sucrose (multiple-time and single-time uptake analysis)
Details: male, BALB/c, mouse, in vivo, pons: [14C] Sucrose, 30 mins, Balb/c ♂, 5ml/min; mean
readout.type: Kp at 30 min
The reply should be a number, written without any unit.

Which value of Kp at 30 min has been reported for OC[C@H]1O[C@@](CO)(O[C@H]2O[C@H](CO)[C@@H](O)[C@H](O)[C@H]2O)[C@@H](O)[C@@H]1O [[^14C]-sucrose, reference compound] in the records? 0.124
